Test system: PC-3 prostate
Protocol Summary: NCI tumour cell line growth inhibition, 48 h
Measured Metric: TGI (µM)
Numbers only, in µM.

>  <Molecule Smiles>
Cc1ccc2nc(COc3ccc(C(=O)NNC(=O)Nc4ccc(Cl)c(C(F)(F)F)c4)cc3)[nH]c2c1

>  <Value>
36.2

$$$$

For each of the items listed, what is its TGI?
1. C/C(=N\N=C\c1ccc(Cl)c([N+](=O)[O-])c1)c1ccc2c(c1)Nc1ccccc1S2
2. O=c1cc(-c2ccccc2)oc2cc(OCCCNCc3ccccc3)cc(O)c12

Output:
1: 23.3; 2: 32.4

###

System: MDA-MB-468 breast
Protocol Summary: NCI tumour cell line growth inhibition, 48 h
Measured Metric: TGI (µM)
Give bare numbers, in µM.

>  <Molecule>
O=C(CNC(=O)c1cccc2ccccc12)Nc1ccccc1Oc1cccc(O)c1

>  <TGI (µM)>
19.4

$$$$
>  <Molecule>
Cc1cn(-c2cc(NC(=O)c3cncc(C#Cc4cnc5ccc(OCCCS(C)(=O)=O)nn45)c3)cc(C(F)(F)F)c2)cn1

>  <TGI (µM)>
7.33

$$$$
>  <Molecule>
CCN(CC)c1ccc(/C=N/NC(=O)c2ccc(Nc3ccnc(C(F)(F)F)c3)cc2)c(O)c1

>  <TGI (µM)>
0.956

$$$$

For each of the items listed, what is its TGI?
1. Clc1cc(Cl)cc(N2N=C(c3cccc(Nc4ccncc4)c3)CC2c2ccccc2)c1 (stereo not given)
2. FC(F)(F)c1ccc2c(c1)N(CCCN1CCN(C3CC3)CC1)c1ccccc1S2
3. O=C(Nc1ccccc1Cl)c1cnc2ccc(C3CCNCC3)cn12
4. COC(=O)Nc1ccc2ccc3c(NC(=O)OC)ccc4ccc1c2c43 (tested in a mixture with another compound)
5. COc1ccc(/C=C/C(=O)c2ccc(Nc3ncnc4ccccc34)cc2)cc1OC
6. Cc1sc2ncnc(Sc3nc4ccccc4[nH]3)c2c1C

Output:
[3.01, 15.1, 9.54, 19.2, 7.29, 60.5]

###

System: CCRF-CEM leukemia
Protocol Summary: NCI tumour cell line growth inhibition, 48 h
Measured Metric: GI50

Known GI50 results, listed for orientation:
>  <Molecule Smiles>
COc1cccc(COc2ccc(/C=C3\Oc4cc(O)ccc4C3=O)cc2)c1

>  <GI50>
> 100 µM

$$$$
>  <Molecule Smiles>
O=c1cc(-c2ccccc2)oc2cc(OCCCNCc3ccccc3)cc(O)c12

>  <GI50>
5.29 µM

$$$$
>  <Molecule Smiles>
Cc1ccc2nc(COc3ccc(C(=O)NNC(=O)Nc4ccc(Cl)c(C(F)(F)F)c4)cc3)[nH]c2c1

>  <GI50>
51.2 µM

$$$$

# context switch: different compound, same GI50
Input: Can you share its GI50? I mean this compound: COc1nc(N)ncc1-c1ccc2ncnc(N3CCc4cc(F)c(Cl)cc43)c2c1
Output: 26 µM

###

Hi there, I'd appreciate the recorded GI50 for every entry that follows.
Test system: MDA-MB-468 breast
Protocol Summary: NCI tumour cell line growth inhibition, 48 h

Known GI50 results, listed for orientation:
>  <Compound>
CC(C)(C)Cn1c(N)nc2ccc(-c3[nH]c(C(C)(C)C)nc3-c3ccc(F)cc3)nc21

>  <Measured Metric>
GI50

>  <Value>
3.1 µM

$$$$
>  <Compound>
Cc1cn(-c2cc(NC(=O)c3cncc(C#Cc4cnc5ccc(OCCCS(C)(=O)=O)nn45)c3)cc(C(F)(F)F)c2)cn1

>  <Measured Metric>
GI50

>  <Value>
2.2 µM

$$$$

For each of the items listed, what is its GI50?
1. O=C(Oc1ccccc1)c1cc(O)c(O)c(O)c1
2. C#Cc1cccc(NC(=O)Nc2ccc(NC(=O)CCl)cc2)c1
3. O=C(O)C(/C=C/c1ccco1)=N\Nc1nc(-c2ccc(Cl)cc2)cs1
4. Cc1sc2ncnc(Sc3nc4ccccc4[nH]3)c2c1C
5. O=C(CNC(=O)c1cccc2ccccc12)Nc1ccccc1Oc1cccc(O)c1
6. N#Cc1nc(-c2cccc(Br)c2)cc(-c2ccc(Nc3nc(N4CCCCC4)nc(N4CCCCC4)n3)cc2)c1N
7. COC(=O)c1c2c(c(C)[n+]([O-])c1C)C(=O)C=C(NCc1ccc(Cl)cc1)C2=O
8. COc1nccc(-c2c(-c3ccc(F)cc3)ncn2C2CCC(O)CC2)n1 (stereo not given)

Output:
1: 12.6 µM; 2: 13.3 µM; 3: 10.6 µM; 4: 17.7 µM; 5: 3.55 µM; 6: 2.16 µM; 7: 0.223 µM; 8: 21.6 µM
